Recorded stability in the absence of BNNP (percent of parent remaining) by entry
# experiment notes: Metabolic stability in porcine liver S9 fraction
# Format: in vitro ADME
# test settings: porcine liver homogenate; 30 min
Output spec: scalar in %, unitless text.

Data request: # input compound: O=C(NCCCCCn1ccc2ccc(F)cc21)Oc1ccc(C(=O)O)cc1 [Compound 33] ; wanted: its stability in the absence of BNNP (percent of parent remaining)
Data returned: 59

Data request: # input compound: Cc1ccncc1OC(=O)NCCCCCn1ccc2ccc(F)cc21 [Compound 46] ; wanted: its stability in the absence of BNNP (percent of parent remaining)
Data returned: 56

Data request: # input compound: O=C(NCCCCCn1ccc2ccc(F)cc21)Oc1ccccc1 [Compound 14] ; wanted: its stability in the absence of BNNP (percent of parent remaining)
Data returned: 76

Data request: # input compound: CCOC(=O)C1=C[C@@H](OC(CC)CC)[C@H](NC(C)=O)[C@@H](N)C1 [oseltamivir, reference compound] ; wanted: its stability in the absence of BNNP (percent of parent remaining)
Data returned: 11
